Data credit: patent US12653809B2

# IC50 annotations
Tested On: Cbl-b (truncated variant, UniProt number Q13191) (Homo sapiens, UniProt Q13191)
Construct: made in house
Sequence (Q13191 36-427): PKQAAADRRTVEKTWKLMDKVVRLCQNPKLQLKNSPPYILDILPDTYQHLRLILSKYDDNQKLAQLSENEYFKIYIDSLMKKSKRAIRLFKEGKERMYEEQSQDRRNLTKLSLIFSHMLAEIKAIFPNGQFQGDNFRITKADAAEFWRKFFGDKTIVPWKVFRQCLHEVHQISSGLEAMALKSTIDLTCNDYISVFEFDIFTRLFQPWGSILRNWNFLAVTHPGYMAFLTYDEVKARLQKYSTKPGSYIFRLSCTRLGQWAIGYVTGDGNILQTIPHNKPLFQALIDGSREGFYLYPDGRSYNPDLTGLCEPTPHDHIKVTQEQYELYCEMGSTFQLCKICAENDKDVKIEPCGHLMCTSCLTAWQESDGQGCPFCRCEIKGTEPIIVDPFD
Procedure Summary: Cbl-b activity assay (TR-FRET, interaction of Cbl-b with UbcH5B-Ub)
Assay type: biochemical
Condition Description: high conditions: 100 mM NaCl, 60 nM Src kinase; 12 nM Cbl-b; read-out: Cbl-b activity IC50

// known answers, use as guide
{"columns": ["Molecule", "Result"],
 "data": [
  ["CNC(=O)C1(C(F)(F)F)CCN(C(=O)Nc2cccc([C@H](C)Sc3nncn3C)c2)C1 (some centres unmarked)", "1 to 5 µM"],
  ["Cc1ccc(-c2cc(-c3cccc([C@H](C)Sc4nncn4C)c3)on2)cc1", "1 to 5 µM"],
  ["C[C@H](Sc1nncn1C)c1cccc(NC(=O)N2CCc3nocc3C2)c1", "≥ 5 µM"],
  ["CC(Sc1nncn1C)c1cccc(-c2cc(-c3cccc(C(F)(F)F)c3)no2)c1 (centres unmarked)", "1 to 5 µM"],
  ["COc1cccc(-c2cc(-c3cccc([C@H](C)Sc4nncn4C)c3)on2)c1", "1 to 5 µM"],
  ["COc1cccc(-c2cnn(-c3cccc([C@H](C)Sc4nncn4C)c3)n2)c1", "1 to 5 µM"]
]}

I am curious: what IC50 value has been reported for `CNS(=O)(=O)c1ccc(NC(=O)Nc2cccc([C@H](C)Sc3nncn3C)c2)cc1` ?
≥ 5 µM

Suppose we examine the molecule `C[C@H](Sc1nncn1C)c1cccc(NC(=O)NC2CCCCC2)c1` ; what IC50 value has been reported?
≥ 5 µM

Param item = `Cn1cnnc1[C@@H]1C[C@@H]1c1cccc(NC(=O)N2CCOc3cccnc32)c1` ; retrieve measured IC50.
0.1 to 1 µM

If you can, please state the reported IC50 value of C[C@H](Sc1nncn1C)c1cccc(NC(=O)N2CCC(c3ccccn3)C2)c1 (some centres unmarked) .
≥ 5 µM
